target: aldehyde oxidase (Homo sapiens); experiment: Drug metabolism in human liver cytosol assessed as aldehyde oxidase-mediated metabolism by measuring amount of parent compound remaining measured over 4 hrs in presence of aldehyde oxidase inhibitor raloxifene by MS/MS analysis; format: ADME; details: read-out: Stability
Sequence (Q06278 whole entry): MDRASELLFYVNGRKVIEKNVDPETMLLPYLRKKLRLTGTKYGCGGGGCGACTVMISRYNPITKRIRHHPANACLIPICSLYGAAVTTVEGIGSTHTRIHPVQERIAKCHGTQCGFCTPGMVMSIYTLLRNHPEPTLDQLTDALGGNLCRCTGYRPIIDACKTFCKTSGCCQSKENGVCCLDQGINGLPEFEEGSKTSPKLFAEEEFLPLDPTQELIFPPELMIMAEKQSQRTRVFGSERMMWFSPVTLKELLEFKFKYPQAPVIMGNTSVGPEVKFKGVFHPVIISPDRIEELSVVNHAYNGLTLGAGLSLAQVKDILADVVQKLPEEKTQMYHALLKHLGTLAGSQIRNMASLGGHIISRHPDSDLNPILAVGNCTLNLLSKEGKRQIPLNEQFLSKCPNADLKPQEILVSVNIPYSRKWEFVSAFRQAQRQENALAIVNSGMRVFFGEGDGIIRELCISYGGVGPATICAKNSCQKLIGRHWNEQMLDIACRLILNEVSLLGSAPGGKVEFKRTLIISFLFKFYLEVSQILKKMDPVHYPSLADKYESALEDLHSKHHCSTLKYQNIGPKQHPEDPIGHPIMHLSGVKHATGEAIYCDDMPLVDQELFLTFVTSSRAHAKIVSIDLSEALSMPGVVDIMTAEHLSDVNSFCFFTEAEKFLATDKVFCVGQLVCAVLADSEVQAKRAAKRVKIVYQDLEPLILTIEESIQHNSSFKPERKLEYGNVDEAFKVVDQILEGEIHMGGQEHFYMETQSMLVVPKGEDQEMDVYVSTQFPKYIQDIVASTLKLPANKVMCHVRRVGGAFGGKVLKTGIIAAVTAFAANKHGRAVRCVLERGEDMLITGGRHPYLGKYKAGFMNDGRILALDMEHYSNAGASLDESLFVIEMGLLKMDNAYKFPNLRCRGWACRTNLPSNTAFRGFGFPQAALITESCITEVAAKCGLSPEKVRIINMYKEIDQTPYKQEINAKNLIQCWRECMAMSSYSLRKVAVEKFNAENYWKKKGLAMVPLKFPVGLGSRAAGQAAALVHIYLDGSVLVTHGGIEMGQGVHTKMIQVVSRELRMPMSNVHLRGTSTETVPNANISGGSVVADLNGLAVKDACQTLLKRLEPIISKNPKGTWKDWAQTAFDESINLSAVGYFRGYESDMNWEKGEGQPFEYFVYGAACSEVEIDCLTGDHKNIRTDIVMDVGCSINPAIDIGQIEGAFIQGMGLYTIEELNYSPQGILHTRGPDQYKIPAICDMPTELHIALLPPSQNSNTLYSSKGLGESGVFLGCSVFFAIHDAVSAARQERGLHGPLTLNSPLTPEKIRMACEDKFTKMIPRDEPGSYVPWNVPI
Can you tell me remaining at 4 h for the items I'm about to list?
Give the quantity in %, number only.

IN: Can you look up remaining at 4 h on aldehyde oxidase (Homo sapiens) for O=C(N[C@@H]1CCC[C@H](Nc2nc(-c3n[nH]c4ncc(F)cc34)ncc2F)C1)N1CC[C@@H](F)C1 ?
OUT: 98

IN: Query remaining at 4 h on aldehyde oxidase (Homo sapiens) for O=C(N[C@@H]1CCC[C@H](Nc2nc(-c3c[nH]c4ncc(F)cc34)ncc2F)C1)N1CCOCC1
OUT: 103

IN: Entry Cc1[nH]c2ncc(F)cc2c1-c1ncc(F)c(N[C@H]2CCC[C@@H](NC(=O)N3CCCC3)C2)n1 , system aldehyde oxidase (Homo sapiens): what remaining at 4 h was measured?
OUT: 103

IN: Hi! What's the reported remaining at 4 h for CC(O)c1[nH]c2ncc(F)cc2c1-c1ncc(F)c(N[C@H]2CCC[C@@H](NC(=O)N3CCCC3)C2)n1 (stereo in doubt; 21b) on aldehyde oxidase (Homo sapiens)?
OUT: 99

IN: Given the entry Cn1cnc(C(=O)N[C@@H]2CCC[C@H](Nc3nc(-c4n[nH]c5ncc(F)cc45)ncc3F)C2)c1 , what remaining at 4 h was observed with aldehyde oxidase (Homo sapiens)?
OUT: 103

IN: Look up remaining at 4 h with aldehyde oxidase (Homo sapiens) for this compound: O=C(N[C@@H]1CCC[C@H](Nc2nc(-c3c[nH]c4ncc(F)cc34)ncc2F)C1)N1CCCC1
OUT: 99

IN: Short answer please: remaining at 4 h, aldehyde oxidase (Homo sapiens), entry O=C(N[C@@H]1CCC[C@H](Nc2nc(-c3c(CO)[nH]c4ncc(F)cc34)ncc2F)C1)N1CC[C@@H](F)C1
OUT: 114

IN: Notebook entry, aldehyde oxidase (Homo sapiens) assay: remaining at 4 h of O=C(N[C@@H]1CCC[C@H](Nc2nc(-c3n[nH]c4ncc(F)cc34)ncc2F)C1)N1CCCC1 = ?
OUT: 101

IN: Which remaining at 4 h is reported with aldehyde oxidase (Homo sapiens) for this entry: O=C(N[C@@H]1CCC[C@H](Nc2nc(-c3c(CO)[nH]c4ncc(F)cc34)ncc2F)C1)N1CCCC1 ?
OUT: 96

IN: Please state recorded remaining at 4 h (tested on aldehyde oxidase (Homo sapiens)) of O=C(N[C@@H]1CCC[C@H](Nc2nc(-c3n[nH]c4ncc(F)cc34)ncc2F)C1)c1ccsc1
OUT: 107

* * *

Task for the reader: assign each of the following compounds its reported Cmax.
assay: Cmax in rat at 3 mg/kg, po; format: ADME, organism-based; design: dose 3 mg/kg, route oral; conditions: in vivo
Reply numerically in ng/mL, unit not repeated.

IN: Form field: reported Cmax of O=C(N[C@@H]1CCC[C@H](Nc2nc(-c3c(CO)[nH]c4ncc(F)cc34)ncc2F)C1)N1CCCC1
OUT: 2800

IN: Which value of Cmax has been reported for O=C(N[C@@H]1CCC[C@H](Nc2nc(-c3n[nH]c4ncc(F)cc34)ncc2F)C1)N1CCCC1 in the records?
OUT: 200

IN: Reported Cmax for O=C(N[C@@H]1CCC[C@H](Nc2nc(-c3c[nH]c4ncc(F)cc34)ncc2F)C1)N1CCCC1 : what is it?
OUT: 2600

* * *

Record form. Attribute: AUC. Fill in for each entry.
assay: AUC in mouse at 30 mg/kg, po; format: ADME, organism-based; conditions: in vivo
Express the reported value numerically, then name its unit.

IN: Consider the molecule shown here: O=C(N[C@@H]1CCC[C@H](Nc2nc(-c3c(CO)[nH]c4ncc(F)cc34)ncc2F)C1)N1CCCC1 What is its recorded AUC?
OUT: 101 µg·h/mL

IN: # AUC lookup, item O=C(N[C@@H]1CCC[C@H](Nc2nc(-c3c[nH]c4ncc(F)cc34)ncc2F)C1)N1CCCC1
OUT: 336 µg·h/mL

IN: I am curious: what AUC value has been reported for O=C(N[C@@H]1CCC[C@H](Nc2nc(-c3n[nH]c4ncc(F)cc34)ncc2F)C1)N1CCCC1 ?
OUT: 44.5 µg·h/mL

* * *

assay: Oral bioavailability in rat at 3 mg/kg; assay type: ADME, organism-based; conditions: in vivo
TEST_READOUT: bioavailability
Please state the number and follow it with the unit.

IN: Recorded bioavailability for O=C(N[C@@H]1CCC[C@H](Nc2nc(-c3c(CO)[nH]c4ncc(F)cc34)ncc2F)C1)N1CCCC1 , please?
OUT: 100%

IN: Consider the molecule O=C(N[C@@H]1CCC[C@H](Nc2nc(-c3c[nH]c4ncc(F)cc34)ncc2F)C1)N1CCCC1 and give its measured bioavailability.
OUT: 82%

IN: Requested read-out: bioavailability. Entry: O=C(N[C@@H]1CCC[C@H](Nc2nc(-c3n[nH]c4ncc(F)cc34)ncc2F)C1)N1CCCC1
OUT: 15.3%

* * *

experiment: Cmax in mouse at 30 mg/kg, po; assay type: ADME, organism-based; parameters: dose 30 mg/kg, route oral; settings: in vivo
Can you tell me Cmax for the items I'm about to list?
Note: unit ng/mL is implicit; provide only the numeric part.

IN: Quick check: Cmax of O=C(N[C@@H]1CCC[C@H](Nc2nc(-c3c(CO)[nH]c4ncc(F)cc34)ncc2F)C1)N1CCCC1 ?
OUT: 37700

IN: Returns the measured Cmax for the input molecule. Input: O=C(N[C@@H]1CCC[C@H](Nc2nc(-c3c[nH]c4ncc(F)cc34)ncc2F)C1)N1CCCC1
OUT: 61100

IN: Need Cmax of O=C(N[C@@H]1CCC[C@H](Nc2nc(-c3n[nH]c4ncc(F)cc34)ncc2F)C1)N1CCCC1 , thanks.
OUT: 32100
